target: C-C chemokine receptor type 5 (Homo sapiens, UniProt P51681); experiment: Ability to displace [125 I]-MIP-1alpha from C-C chemokine receptor type 5 expressed on CHO cell membranes
Sequence (P51681 whole entry): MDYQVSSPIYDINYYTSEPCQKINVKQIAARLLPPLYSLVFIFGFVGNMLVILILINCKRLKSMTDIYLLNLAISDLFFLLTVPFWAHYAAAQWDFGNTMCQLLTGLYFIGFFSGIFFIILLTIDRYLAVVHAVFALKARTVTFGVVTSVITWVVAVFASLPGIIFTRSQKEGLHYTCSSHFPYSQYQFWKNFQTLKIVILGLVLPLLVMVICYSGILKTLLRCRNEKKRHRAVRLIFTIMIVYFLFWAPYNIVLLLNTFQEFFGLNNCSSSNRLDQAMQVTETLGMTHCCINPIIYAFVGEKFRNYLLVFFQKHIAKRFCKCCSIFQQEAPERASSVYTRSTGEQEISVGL

{"MOLECULE": "O=S(=O)(c1ccccc1)N1C[C@@H](CN2CCC3(CC2)CSc2ccccc23)[C@@H](c2ccccc2)C1", "CMP": ">", "IC50 (nM)": 10000}
{"MOLECULE": "O=S(=O)(c1ccccc1)N1C[C@H](CN2CCC3(CC2)C[S+]([O-])c2ccccc23)[C@@H](c2ccccc2)C1 (stereo in doubt; 18)", "CMP": "=", "IC50 (nM)": 26}
{"MOLECULE": "O=S1(=O)CC2(CCN(C[C@H]3CN(S(=O)(=O)c4ccccc4)C[C@@H]3c3ccccc3)CC2)c2ccccc21 (stereo in doubt; 8)", "CMP": "=", "IC50 (nM)": 170}
